Reference for the values: the kinase profiling compilation of Christmann-Franck et al. (2016)

- experimental.system: SIK3 (human)
- assay.comment: radiometric filter-binding kinase assay
- assay.conditions: compound 10.0 µM
measurement.label: residual activity (%)
Numbers only, in %.

Recorded results for 3 compounds are shown here.
COc1cc(C(=O)N2CCOCC2)c(F)cc1Nc1ncc(C(F)(F)F)c(NC2CC2)n1 : 93
CC1=C(CO)C(=O)O[C@@H]([C@@H](C)[C@H]2CC[C@H]3[C@@H]4C[C@H]5O[C@]56[C@@H](O)C=CC(=O)[C@]6(C)C4CC[C@]23C)C1 (some centres undefined) : 94
Nc1cccc2c1CN(C1CCC(=O)NC1=O)C2=O (centres undefined) : 94

Please examine the following record next.
What does the data say about its residual activity? Entry: Cc1ccc(-c2ccc3c(ccc4sc5c(c43)NC[C@@H](C)NC5=O)n2)cn1
73

* * *

Task for the reader: assign each of the following compounds its reported residual activity.
- experimental.system: MAPK13 (human) (UniProt O15264)
- Sequence (O15264 whole entry, looked up): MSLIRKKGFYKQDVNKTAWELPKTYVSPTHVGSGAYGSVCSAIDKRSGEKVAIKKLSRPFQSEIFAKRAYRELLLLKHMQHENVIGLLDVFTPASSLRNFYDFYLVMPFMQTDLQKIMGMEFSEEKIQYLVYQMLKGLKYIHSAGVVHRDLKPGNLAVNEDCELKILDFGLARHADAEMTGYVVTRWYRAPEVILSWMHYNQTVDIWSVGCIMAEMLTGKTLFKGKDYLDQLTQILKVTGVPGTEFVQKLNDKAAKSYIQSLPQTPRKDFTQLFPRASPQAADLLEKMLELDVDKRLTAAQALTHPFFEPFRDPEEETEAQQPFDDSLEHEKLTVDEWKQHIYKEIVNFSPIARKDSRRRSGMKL
- assay.comment: radiometric filter-binding kinase assay
- assay.conditions: compound 0.1 µM
One number for each entry, in %.

Recorded results for 3 compounds are shown here.
Cc1ccc(-c2ccc3c(ccc4sc5c(c43)NC[C@@H](C)NC5=O)n2)cn1 : 108
NC(=O)Nc1ccc2c(c1)/C(=C/c1cc(-c3cccnc3)c[nH]1)C(=O)N2 : 85
CC1=C(CO)C(=O)O[C@@H]([C@@H](C)[C@H]2CC[C@H]3[C@@H]4C[C@H]5O[C@]56[C@@H](O)C=CC(=O)[C@]6(C)C4CC[C@]23C)C1 (stereo partly drawn) : 106

Could I get residual activity for every one of these entries?
1. O=C(NCCCNc1nc(Nc2cccc(CN3CCOCC3)c2)ncc1C1CC1)C1CCC1
2. C/C(=C1/C(=O)Nc2ccc(NC(N)=O)cc21)c1ccc[nH]1
3. NC(=O)c1cc2c(-c3cccc(-c4ccccc4)c3)cnc(N)c2s1
4. Cc1ccc(Sc2cnc(Nc3cccc(Br)n3)s2)cc1C(=O)N1CCN(C(=O)CN)CC1
5. NC(=O)c1cc(-c2ccnc(NC3CCCCC3)c2)nc(N2CCNCC2)c1

1: 88; 2: 86; 3: 83; 4: 97; 5: 89

* * *

Task for the reader: assign each of the following compounds its reported residual activity.
- experimental.system: UniProtKB P53778
- Sequence (P53778 whole entry, looked up): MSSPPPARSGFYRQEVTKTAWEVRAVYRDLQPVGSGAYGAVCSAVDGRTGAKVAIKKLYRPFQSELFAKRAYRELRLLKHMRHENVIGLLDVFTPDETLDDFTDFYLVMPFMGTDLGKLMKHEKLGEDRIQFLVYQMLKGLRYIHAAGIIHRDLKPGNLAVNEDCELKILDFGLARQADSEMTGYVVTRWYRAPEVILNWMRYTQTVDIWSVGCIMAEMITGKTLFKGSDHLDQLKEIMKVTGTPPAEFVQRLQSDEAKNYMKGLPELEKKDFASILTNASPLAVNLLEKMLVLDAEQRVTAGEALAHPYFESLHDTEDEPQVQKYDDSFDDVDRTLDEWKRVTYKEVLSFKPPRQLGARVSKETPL
- assay.comment: radiometric filter-binding kinase assay
- assay.conditions: compound 0.1 µM
Numbers only, in %.

Recorded results for 4 compounds are shown here.
NC(=O)Nc1ccc2c(c1)/C(=C/c1cc(-c3cccnc3)c[nH]1)C(=O)N2 : 93
COc1cc(O)c2c(c1)/C=C/C[C@H](O)[C@H](O)C(=O)/C=C\C[C@H](C)OC2=O : 99
CCCCCc1ccc(/C=C/[C@H](O)[C@@H](CO)NC)cc1 : 93
O=C(N[C@@H](COc1ccc2[nH]c(=O)[nH]c2c1)c1ccccc1)c1cccn(Cc2ccc(F)c(F)c2)c1=O : 98

Could I get residual activity for every one of these entries?
1. O=C(NCCCNc1nc(Nc2cccc(CN3CCOCC3)c2)ncc1C1CC1)C1CCC1
2. CCc1cncnc1N1CCN(Cc2nc3cc(C(F)(F)F)ccc3[nH]2)CC1
3. CCn1c(-c2nonc2N)nc2cncc(CNC3CCNCC3)c21

1: 88; 2: 107; 3: 119

Could I get residual activity for every one of these entries?
1. COc1ccc(-n2ncc3cnc(Nc4cc(OC)c(OC)c(OCCCN5CCN(C)CC5)c4)nc32)cc1
2. O=C(Nc1ccccc1-c1cn2c(CN3CCNCC3)csc2n1)c1cnc2ccccc2n1

1. 113
2. 84
